B1: library; a variant is named by its letters at N, in order (parent)
chain: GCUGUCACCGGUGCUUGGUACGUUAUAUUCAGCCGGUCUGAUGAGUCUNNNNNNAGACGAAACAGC

Variants of: B1
Assay Procedure: normalized RNA/DNA level without ligand (relative to sTRSVctl = 100) (log10 (% of sTRSVctl)); HEK293T overexpressing SLC46A1; higher = less ribozyme self-cleavage, higher mRNA level
Conditions: without (6R,S)-folinic acid; ligand present: no
Value Kind: normalized RNA/DNA level without ligand (log10)
One number for each entry.

See these solved cases before continuing.
GUCUGU: 2.02
AGUACC: 2.07
GUGCUG: 2.08

# batch: return normalized RNA/DNA level without ligand (log10) for each of the 3 variants below
1. AUCCCC
2. ACGACU
3. CCGUUU

1. 2.05
2. 2
3. 2.04
